tested on: MDA-MB-231; test: Cytotoxicity against human MDA-MB-231 cells measured for 48 hrs; assay type: functional, cell-based; conditions: MDA-MB-231, 48 h
observationType: pIC50
Please keep in mind that pIC50 is minus log10 of the molar concentration; only the number is needed.

Sample records with pIC50:
compound	reportedResult
COc1cc2c(cc1OCc1ccccc1)C[N+](C)(Cc1ccc(Oc3ccc(OCc4ccccc4)cc3)nc1)CC2 (centres undefined)	4.91
COc1cc2c(cc1OCc1ccccc1)C[N+](C)(Cc1ccc(Oc3ccc(C4CCC(=O)CC4)cc3)nc1)CC2 (centres undefined)	4.91

Query :: Recorded pIC50 of "COc1ccc2c(c1OC)C(=O)O[C@@H]2[C@H]1c2c(cc3c(c2OC)OCO3)CCN1C" , please.
Result :: 3.92

----------
system: MDA-MB-231; test: Cytotoxicity against human MDA-MB-231 cells measured for 48 hrs; assay type: functional, cell-based; settings: MDA-MB-231, 48 h
observationType: IC50 (µM)
// return numeric value only (unit: µM, not printed)

Sample records with IC50:
compound	IC50 [µM]
COc1cc2c(cc1OCc1ccccc1)C[N+](C)(Cc1ccc(Oc3ccc(C45CC6CC(CC(C6)C4)C5)cc3)nc1)CC2 (centres undefined)	4.6
COc1cc2c(cc1OCc1ccccc1)C[N+](C)(Cc1ccc(Oc3ccc(Oc4ccccc4)cc3)nc1)CC2 (centres undefined)	12.6

Below: the item to evaluate.
Query :: Recorded IC50 of COc1cc2c(cc1OCc1ccccc1)C[N+](C)(Cc1ccc(Oc3cc(Cl)ccc3Oc3ccc(Cl)cc3Cl)nc1)CC2 (centres undefined) , please.
Result :: 9.3

----------
test system: HepG2; assay: Cytotoxicity against human HepG2 cells assessed as cell inhibition rate at 40 uM by CCK8 assay relative to control; type: functional
As shown below, each of these compounds has a reported inhibition at 40 µM value.

Sample records with inhibition at 40 µM:
compound	reportedResult
COc1cc2c(cc1OCc1ccccc1)C[N+](C)(Cc1ccc([N+](=O)[O-])nc1)CC2 (stereo not drawn)	22.6%
COc1cc2c(cc1OCc1ccccc1)C[N+](C)(Cc1ccc3ccccc3n1)CC2 (stereo not drawn)	7.43%

Query :: Recorded inhibition at 40 µM of COc1cc2c(cc1OCc1ccccc1)C[N+](C)(Cc1ccccn1)CC2 (stereo not drawn) , please.
Result :: 18.9%

----------
tested on: MDA-MB-231; assay: Cytotoxicity against human MDA-MB-231 cells assessed as cell inhibition rate at 40 uM by CCK8 assay relative to control; assay type: functional
observationType: inhibition at 40 µM (%)
// return numeric value only (unit: %, not printed)

Sample records with inhibition at 40 µM:
molecule	inhibition at 40 µM [%]
COc1cc2c(cc1OCc1ccccc1)C[N+](C)(Cc1cnc3ccccc3c1)CC2 (centres undefined)	7.43
COc1cc2c(c(OC)c1OC)CCN(C)C2	52
COc1cc2c(cc1OCc1ccccc1)C[N+](C)(Cc1ccccn1)CC2 (centres undefined)	9.61

Below: the item to evaluate.
Query :: Recorded inhibition at 40 µM of COc1cc2c(cc1OCc1ccccc1)C[N+](C)(Cc1ccc(Br)nc1)CC2 (centres undefined) , please.
Result :: 17.4

----------
As shown below, each of these molecules has a reported inhibition at 40 µM value.
system: MDA-MB-231; assay: Cytotoxicity against human MDA-MB-231 cells assessed as cell inhibition rate at 40 uM by CCK8 assay relative to control; type: functional
// return numeric value only (unit: %, not printed)

Sample records with inhibition at 40 µM:
molecule	system	inhibition at 40 µM / %
COc1cc2c(cc1OCc1ccccc1)C[N+](C)(Cc1ccc([N+](=O)[O-])nc1)CC2 (stereo unspecified)	MDA-MB-231	10.1
COc1cc2c(cc1OCc1ccccc1)C[N+](C)(Cc1ccc(Br)cn1)CC2 (stereo unspecified)	MDA-MB-231	23.7
CN1CCc2cc3c(cc2C1)OCO3	MDA-MB-231	14.5
COc1cc2c(cc1OC)C[N+](C)(Cc1ccc(Br)nc1)CC2 (stereo unspecified)	MDA-MB-231	30.5
COc1cc2c(cc1OCc1ccccc1)C[N+](C)(Cc1ccnc3ccccc13)CC2 (stereo unspecified)	MDA-MB-231	8.29
COc1cc2c(cc1OCc1ccccc1)CN(C)CC2	MDA-MB-231	30.2
COc1cc2c(cc1OC)CN(C)CC2	MDA-MB-231	30.7
C[N+]1(Cc2ccc(Br)nc2)CCc2cc3c(cc2C1)OCO3 (stereo unspecified)	MDA-MB-231	23.2
COc1cc2c(cc1OCc1ccccc1)C[N+](C)(Cc1ccc3ccccc3n1)CC2 (stereo unspecified)	MDA-MB-231	2.75
COc1cc2c(c(OC)c1OC)CC[N+](C)(Cc1ccc(Br)nc1)C2 (stereo unspecified)	MDA-MB-231	35.1

Below: the item to evaluate.
Query :: Recorded inhibition at 40 µM of COc1cc2c(cc1O)C[N+](C)(Cc1ccc(Br)nc1)CC2 (stereo unspecified) , please.
Result :: 34.4

----------
test system: MDA-MB-231; assay: Cytotoxicity against human MDA-MB-231 cells measured for 48 hrs; type: functional, cell-based; details: MDA-MB-231, 48 h
As shown below, each of these compounds has a reported IC50 value.
// return numeric value only (unit: µM, not printed)

compound	IC50 / µM
COc1cc2c(cc1OCc1ccccc1)C[N+](C)(Cc1ccc(Oc3ccc(Oc4ccc(C(F)(F)F)cc4)cc3)nc1)CC2 (stereo not drawn)	9.8
COc1cc2c(cc1OCc1ccccc1)C[N+](C)(Cc1ccc(Oc3ccc(C4CC4)cc3)nc1)CC2 (stereo not drawn)	12.5

Below: the item to evaluate.
Query :: Recorded IC50 of CCCCC[C@H]1CC[C@H](c2ccc(Oc3ccc(C[N+]4(C)CCc5cc(OC)c(OCc6ccccc6)cc5C4)cn3)cc2)CC1 (stereo partly drawn) , please.
Result :: 11.4

----------
tested on: HepG2; test: Cytotoxicity against human HepG2 cells assessed as cell inhibition rate at 40 uM by CCK8 assay relative to control; type: functional
observationType: inhibition at 40 µM (%)
// return numeric value only (unit: %, not printed)

compound	observationType	resultUnit	reportedResult
COc1cc2c(cc1OCc1ccccc1)C[N+](C)(Cc1ccnc3ccccc13)CC2 (configuration not stated)	inhibition at 40 µM	%	11.7
CN1CCc2cc3c(cc2C1)OCO3	inhibition at 40 µM	%	26.8

Query :: Recorded inhibition at 40 µM of "COc1cc2c(cc1OCc1ccccc1)CN(C)CC2" , please.
Result :: 16.3

Query :: Let us now turn to COc1cc2c(c(OC)c1OC)CC[N+](C)(Cc1ccc(Br)nc1)C2 (configuration not stated)
Result :: 60.6

Query :: Let us now turn to "COc1cc2c(c(OC)c1OC)CCN(C)C2"
Result :: 9.18

Query :: Let us now turn to COc1cc2c(cc1OCc1ccccc1)C[N+](C)(Cc1ccc(Br)cn1)CC2 (configuration not stated)
Result :: 27.8

Query :: Let us now turn to COc1cc2c(cc1OCc1ccccc1)C[N+](C)(Cc1ccc(Br)nc1)CC2 (configuration not stated)
Result :: 27.3

Query :: Let us now turn to "COc1cc2c(cc1OC)CN(C)CC2"
Result :: 20.6

Query :: Let us now turn to C[N+]1(Cc2ccc(Br)nc2)CCc2cc3c(cc2C1)OCO3 (configuration not stated)
Result :: 19.8

Query :: Let us now turn to COc1cc2c(cc1OC)C[N+](C)(Cc1ccc(Br)nc1)CC2 (configuration not stated)
Result :: 19.8

Query :: Let us now turn to COc1cc2c(cc1OCc1ccccc1)C[N+](C)(Cc1cnc3ccccc3c1)CC2 (configuration not stated)
Result :: 6.8

Query :: Let us now turn to COc1cc2c(cc1O)C[N+](C)(Cc1ccc(Br)nc1)CC2 (configuration not stated)
Result :: 15

----------
As shown below, each of these molecules has a reported IC50 value.
tested on: MDA-MB-231; assay: Cytotoxicity against human MDA-MB-231 cells measured for 48 hrs; assay type: functional, cell-based; settings: MDA-MB-231, 48 h
// return numeric value only (unit: µM, not printed)

Sample records with IC50:
molecule	system	reportedResult
COc1cc2c(cc1OCc1ccccc1)C[N+](C)(Cc1ccc(Nc3ccccc3[N+](=O)[O-])nc1)CC2 (stereo not given)	MDA-MB-231	10
COc1cc2c(cc1OCc1ccccc1)C[N+](C)(Cc1ccc(Oc3ccc(SC(F)(F)F)cc3)nc1)CC2 (stereo not given)	MDA-MB-231	15.3
COc1cc2c(cc1OCc1ccccc1)C[N+](C)(Cc1ccc(Oc3cc(C(F)(F)F)ccc3F)nc1)CC2 (stereo not given)	MDA-MB-231	17.3

Below: the item to evaluate.
Query :: Recorded IC50 of COc1cc2c(cc1OCc1ccccc1)C[N+](C)(Cc1ccc(Oc3ccc(/N=N/c4ccccc4)cc3)nc1)CC2 (stereo not given) , please.
Result :: 13.3
